target: Octn2 (Organic cation/carnitine transporter 2) (Mus musculus); experiment: TP_TRANSPORTER: inhibition of carnitine uptake by gamma-butyrobetaine at 5uM in Octn2-HEK cells; assay type: functional, cell-based, HEK293; parameters: scale not given: the % may be the effect or the level left; conditions: human, probe carnitine, read-out: Activity
Sequence (Q9Z0E8 whole entry): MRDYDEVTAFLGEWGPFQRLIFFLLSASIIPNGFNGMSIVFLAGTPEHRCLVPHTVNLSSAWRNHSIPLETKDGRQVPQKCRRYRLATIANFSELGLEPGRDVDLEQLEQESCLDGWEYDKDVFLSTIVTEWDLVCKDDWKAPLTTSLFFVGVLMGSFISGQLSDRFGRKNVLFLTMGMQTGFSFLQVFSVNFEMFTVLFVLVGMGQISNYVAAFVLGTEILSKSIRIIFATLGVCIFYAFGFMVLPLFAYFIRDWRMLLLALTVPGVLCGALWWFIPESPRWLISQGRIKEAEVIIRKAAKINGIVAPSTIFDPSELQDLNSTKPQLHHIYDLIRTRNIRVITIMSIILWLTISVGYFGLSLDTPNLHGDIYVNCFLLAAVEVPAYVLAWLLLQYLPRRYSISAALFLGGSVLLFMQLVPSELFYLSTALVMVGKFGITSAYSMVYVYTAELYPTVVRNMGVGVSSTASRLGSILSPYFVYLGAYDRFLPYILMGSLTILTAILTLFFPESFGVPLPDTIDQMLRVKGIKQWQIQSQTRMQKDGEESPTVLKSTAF
observation type: activity at 5 µM

QUERY: Name the recorded activity at 5 µM for C[N+](C)(C)CCCC(=O)[O-] .
RESULT: 77%
